# Test system: Liver microsome
# Test Name: Intrinsic clearance in human liver microsomes
# Format: ADME
Endpoint: Intrinsic clearance (µL/min/mg)

>>> measured("COc1cccc([C@H]2CN(c3nc(-c4ccncn4)cc(=O)n3C)CCO2)c1")
130
>>> measured("Cn1c(N2CCO[C@@H](c3ccccc3F)C2)nc(-c2ccncn2)cc1=O")
100
>>> measured("COc1ccccc1[C@H]1CN(c2nc(-c3ccncn3)cc(=O)n2C)CCO1")
190
>>> measured("Cn1c(N2CCO[C@@H](c3c(F)cccc3Cl)C2)nc(-c2ccncn2)cc1=O")
70
>>> measured("Cn1c(N2CCO[C@@H](c3ccc(C#N)cc3)C2)nc(-c2ccncn2)cc1=O")
30

Source of measurements: ChEMBL document CHEMBL3091290
